System: Toxoplasma gondii RH (in HFF)
Assay: parasite growth relative to the screen mean (all compounds = 100%); higher = less inhibition of parasite growth
Conditions: 5 µM; 72 h; oxygen 21 %
Counter-ions that a name gives are not always drawn.
# key: entry, value: parasite growth

[
  {
    "Molecule": "COc1ccc(NC(=O)c2cc(OCCCN(C)C)nn2Cc2ccccc2)cc1 [CFM 1571 hydrochloride]",
    "Measurement target": "Toxoplasma gondii RH (in HFF)",
    "Comparison sign": "=",
    "parasite growth [%]": 106
  },
  {
    "Molecule": "O=c1[nH]nc(Sc2ncc([N+](=O)[O-])s2)n1-c1ccc2c(c1)OCCO2",
    "Measurement target": "Toxoplasma gondii RH (in HFF)",
    "Comparison sign": "=",
    "parasite growth [%]": 130
  },
  {
    "Molecule": "CC1(COc2ccc(CC3SC(=O)NC3=O)cc2)CCCCC1 (stereo not drawn)",
    "Measurement target": "Toxoplasma gondii RH (in HFF)",
    "Comparison sign": "=",
    "parasite growth [%]": 100
  },
  {
    "Molecule": "Cc1ccc(NC2=CC(=O)c3sc(C)nc3C2=O)cc1",
    "Measurement target": "Toxoplasma gondii RH (in HFF)",
    "Comparison sign": "<",
    "parasite growth [%]": 0
  },
  {
    "Molecule": "CCOC(=O)[C@H](CCc1ccccc1)N[C@H]1CCc2ccccc2N(CC(=O)O)C1=O [Benazepril hydrochloride]",
    "Measurement target": "Toxoplasma gondii RH (in HFF)",
    "Comparison sign": "=",
    "parasite growth [%]": 140
  },
  {
    "Molecule": "CNCCC(Oc1ccc(C(F)(F)F)cc1)c1ccccc1 (stereo not drawn) [Fluoxetine hydrochloride]",
    "Measurement target": "Toxoplasma gondii RH (in HFF)",
    "Comparison sign": "=",
    "parasite growth [%]": 20.9
  },
  {
    "Molecule": "CC(=O)N[C@@H](CC(=O)N[C@@H](CCC(=O)O)C(=O)O)C(=O)O",
    "Measurement target": "Toxoplasma gondii RH (in HFF)",
    "Comparison sign": "=",
    "parasite growth [%]": 131
  },
  {
    "Molecule": "CCCCn1c(=O)c2[nH]c(C34CC5CC(CC3C5)C4)nc2n(CCCO)c1=O",
    "Measurement target": "Toxoplasma gondii RH (in HFF)",
    "Comparison sign": "=",
    "parasite growth [%]": 101
  },
  {
    "Molecule": "CCN1CCC[C@H]1CNC(=O)c1c(O)c(Cl)cc(Cl)c1OC [Raclopride]",
    "Measurement target": "Toxoplasma gondii RH (in HFF)",
    "Comparison sign": "=",
    "parasite growth [%]": 138
  },
  {
    "Molecule": "CCC(=O)O[C@]1(C(=O)SCF)[C@H](C)C[C@H]2[C@@H]3C[C@H](F)C4=CC(=O)C=C[C@]4(C)[C@@]3(F)[C@@H](O)C[C@@]21C [Fluticasone propionate]",
    "Measurement target": "Toxoplasma gondii RH (in HFF)",
    "Comparison sign": "=",
    "parasite growth [%]": 59.2
  },
  {
    "Molecule": "Nc1nccc(-c2ccc3noc(-c4ccc(Cl)cc4)c3c2)n1",
    "Measurement target": "Toxoplasma gondii RH (in HFF)",
    "Comparison sign": "=",
    "parasite growth [%]": 69.9
  },
  {
    "Molecule": "C=CCNC(=O)c1cc([N+](=O)[O-])cc2c(=O)[nH]c(Nc3ccc(Cl)c(Cl)c3)nc12",
    "Measurement target": "Toxoplasma gondii RH (in HFF)",
    "Comparison sign": "=",
    "parasite growth [%]": 89.6
  },
  {
    "Molecule": "Cc1ccc(/C(=C\\CN2CCCC2)c2ccccn2)cc1 [trans-Triprolidine hydrochloride]",
    "Measurement target": "Toxoplasma gondii RH (in HFF)",
    "Comparison sign": "=",
    "parasite growth [%]": 96.7
  },
  {
    "Molecule": "O=c1cc(N2CCNCC2)oc2c(-c3ccccc3)cccc12",
    "Measurement target": "Toxoplasma gondii RH (in HFF)",
    "Comparison sign": "=",
    "parasite growth [%]": 150
  },
  {
    "Molecule": "CCOC(=O)c1c(C)[nH]c2ccc3c(c12)CN1CCc2cc(OC)ccc2C1O3 (stereo not drawn)",
    "Measurement target": "Toxoplasma gondii RH (in HFF)",
    "Comparison sign": "=",
    "parasite growth [%]": 16.8
  },
  {
    "Molecule": "CC1(C)C(=O)NC2=C1C(=O)C(=O)c1ccccc12",
    "Measurement target": "Toxoplasma gondii RH (in HFF)",
    "Comparison sign": "<",
    "parasite growth [%]": 0
  },
  {
    "Molecule": "CCOC(=O)C1=C(C)NC(C)=C(C(=O)OC)C1c1cccc([N+](=O)[O-])c1 (stereo not drawn)",
    "Measurement target": "Toxoplasma gondii RH (in HFF)",
    "Comparison sign": "=",
    "parasite growth [%]": 118
  },
  {
    "Molecule": "OCC1OC(n2cnc3c(NC4CCCC4)nc(Cl)nc32)C(O)C1O (stereo not drawn)",
    "Measurement target": "Toxoplasma gondii RH (in HFF)",
    "Comparison sign": "=",
    "parasite growth [%]": 138
  }
]

====

System: Toxoplasma gondii RH (in HFF)
Experiment: parasite growth relative to the screen mean (all compounds = 100%); higher = less inhibition of parasite growth
Conditions: 5 µM; 72 h; oxygen 21 %
Counter-ions that a name gives are not always drawn.
Recorded parasite growth for the following compounds
Assay metric: parasite growth (%)

[
  {
    "Compound": "CCc1c2c(nc3ccc(O)cc13)-c1cc3c(c(=O)n1C2)COC(=O)[C@]3(O)CC",
    "Measurement target": "Toxoplasma gondii RH (in HFF)",
    "Readout unit": "%",
    "Comparison sign": "=",
    "Reported measurement": 110
  },
  {
    "Compound": "Fc1ccc(-c2nc3n(c2-c2ccncc2)CCS3)cc1",
    "Measurement target": "Toxoplasma gondii RH (in HFF)",
    "Readout unit": "%",
    "Comparison sign": "<",
    "Reported measurement": 0
  },
  {
    "Compound": "Cc1nn(-c2ccccc2)c(C)c1C=NN1CCN(Cc2ccccc2)CC1",
    "Measurement target": "Toxoplasma gondii RH (in HFF)",
    "Readout unit": "%",
    "Comparison sign": "=",
    "Reported measurement": 141
  },
  {
    "Compound": "COc1ccc(C2CNC(=O)C2)cc1OC1CCCC1 (stereo unspecified)",
    "Measurement target": "Toxoplasma gondii RH (in HFF)",
    "Readout unit": "%",
    "Comparison sign": "=",
    "Reported measurement": 92.1
  },
  {
    "Compound": "COc1cc2c(Nc3ccc(NC(=O)c4ccccc4)cc3)ncnc2cc1OCCCN1CCOCC1",
    "Measurement target": "Toxoplasma gondii RH (in HFF)",
    "Readout unit": "%",
    "Comparison sign": "=",
    "Reported measurement": 17.4
  },
  {
    "Compound": "COc1ccc(OC)c2c(=S)c3ccccc3[nH]c12",
    "Measurement target": "Toxoplasma gondii RH (in HFF)",
    "Readout unit": "%",
    "Comparison sign": "=",
    "Reported measurement": 171
  },
  {
    "Compound": "N#Cc1ccc(NCCNCC(=O)N2CCC[C@H]2C#N)nc1 [NVP DPP 728 dihydrochloride]",
    "Measurement target": "Toxoplasma gondii RH (in HFF)",
    "Readout unit": "%",
    "Comparison sign": "=",
    "Reported measurement": 81.5
  },
  {
    "Compound": "CC[C@H](CO)Nc1nc(Nc2cccc(-c3ccccn3)c2)c2ncn(C(C)C)c2n1 [(R)-DRF053 dihydrochloride]",
    "Measurement target": "Toxoplasma gondii RH (in HFF)",
    "Readout unit": "%",
    "Comparison sign": "=",
    "Reported measurement": 32.4
  },
  {
    "Compound": "CCCc1c(OCCCOc2ccc(OCC(=O)O)cc2)ccc(C(C)=O)c1O",
    "Measurement target": "Toxoplasma gondii RH (in HFF)",
    "Readout unit": "%",
    "Comparison sign": "=",
    "Reported measurement": 135
  },
  {
    "Compound": "Cc1ccc(CC2(O)CCN(CCOc3ccc(O)cc3)CC2)cc1",
    "Measurement target": "Toxoplasma gondii RH (in HFF)",
    "Readout unit": "%",
    "Comparison sign": "=",
    "Reported measurement": 111
  },
  {
    "Compound": "CN/C(=N\\CCSCc1nc[nH]c1C)NC#N",
    "Measurement target": "Toxoplasma gondii RH (in HFF)",
    "Readout unit": "%",
    "Comparison sign": "=",
    "Reported measurement": 118
  },
  {
    "Compound": "CN(C)c1ccc(/C=C2/C(=O)Nc3ccccc32)cc1",
    "Measurement target": "Toxoplasma gondii RH (in HFF)",
    "Readout unit": "%",
    "Comparison sign": "=",
    "Reported measurement": 124
  },
  {
    "Compound": "N=C(N)NC(=O)Cc1c(Cl)cccc1Cl [Guanfacine hydrochloride]",
    "Measurement target": "Toxoplasma gondii RH (in HFF)",
    "Readout unit": "%",
    "Comparison sign": "=",
    "Reported measurement": 162
  },
  {
    "Compound": "O=C(O)c1ccc2cc(-c3ccc(O)c(C45CC6CC(CC(C6)C4)C5)c3)ccc2c1",
    "Measurement target": "Toxoplasma gondii RH (in HFF)",
    "Readout unit": "%",
    "Comparison sign": "=",
    "Reported measurement": 181
  },
  {
    "Compound": "CSc1nc(NC2CCCC2)c([N+](=O)[O-])c(NC2CCCC2)n1",
    "Measurement target": "Toxoplasma gondii RH (in HFF)",
    "Readout unit": "%",
    "Comparison sign": "=",
    "Reported measurement": 35.6
  },
  {
    "Compound": "CN(C)C(=O)n1nnnc1Cc1ccc(-c2ccccc2)cc1",
    "Measurement target": "Toxoplasma gondii RH (in HFF)",
    "Readout unit": "%",
    "Comparison sign": "=",
    "Reported measurement": 84.9
  },
  {
    "Compound": "CC1=Nc2ccc(Cl)cc2S(=O)(=O)N1 [Diazoxide]",
    "Measurement target": "Toxoplasma gondii RH (in HFF)",
    "Readout unit": "%",
    "Comparison sign": "=",
    "Reported measurement": 77.6
  },
  {
    "Compound": "NCCNC(=O)c1ccc(Cl)cn1 [Lazabemide hydrochloride]",
    "Measurement target": "Toxoplasma gondii RH (in HFF)",
    "Readout unit": "%",
    "Comparison sign": "=",
    "Reported measurement": 109
  },
  {
    "Compound": "NCC(O)(CS(=O)(=O)O)c1ccc(Cl)cc1 (stereo unspecified) [2-Hydroxysaclofen]",
    "Measurement target": "Toxoplasma gondii RH (in HFF)",
    "Readout unit": "%",
    "Comparison sign": "=",
    "Reported measurement": 132
  },
  {
    "Compound": "C=C1C(=O)O[C@H]2[C@H]1CC/C(C)=C/CC[C@@]1(C)O[C@@H]21 [Parthenolide]",
    "Measurement target": "Toxoplasma gondii RH (in HFF)",
    "Readout unit": "%",
    "Comparison sign": "=",
    "Reported measurement": 87.7
  },
  {
    "Compound": "CCCCCCC(=O)OC1CC(C)(C)NC(C)(C)C1 [TMPH hydrochloride]",
    "Measurement target": "Toxoplasma gondii RH (in HFF)",
    "Readout unit": "%",
    "Comparison sign": "=",
    "Reported measurement": 123
  }
]

Provenance of the data: the supplement of paper PMC4894684
